System: interferon (α)
test-protocol: Cytokine induction in human cells: interferon (α) by ELISA
Assay type: cell-based
test-context: Homo sapiens, PBMC, human PBMCs, 18 to 24 hours incubation, ELISA of culture supernatant; read-out: Lowest Effective Concentration (μM) Interferon
Kindly supply the reported minimal effective concentration values for the records listed here.

Query COc1ccc(Br)cc1S(=O)(=O)NCCCCn1cnc2c(N)nc3c(c21)CCCC3 on interferon (α); minimal effective concentration returned: > 30 µM

Query Cc1cc(C)c(S(=O)(=O)NCCCCn2cnc3c(N)nc4c(c32)CCCC4)c(C)c1 on interferon (α); minimal effective concentration returned: > 30 µM

Query CCCCCCCCCCCCCCCCS(=O)(=O)NCCCCn1c(CCCC)nc2c(N)nc3ccccc3c21 on interferon (α); minimal effective concentration returned: > 10 µM

Query CCCCc1nc2c(N)nc3ccccc3c2n1CCCCNS(=O)(=O)c1c(C(C)C)cc(C(C)C)cc1C(C)C on interferon (α); minimal effective concentration returned: > 10 µM

Query CN(C)c1cccc2c(S(=O)(=O)NCCCCn3cnc4c(N)nc5c(c43)CCCC5)cccc12 on interferon (α); minimal effective concentration returned: > 30 µM

Query CC(C)(C)c1ccc(S(=O)(=O)NCCCCn2cnc3c(N)nc4c(c32)CCCC4)cc1 on interferon (α); minimal effective concentration returned: > 30 µM
